Cited source: patent US20210388087A1

- assayed system: T1, Human CD3eg linker (human)
- T1 construct: Single chain: epsilon and gamma subunits of human CD3 joined by a 29-mer linker, Flag-tag at the C-terminus; also called recombinant human CD3
- T1 chain: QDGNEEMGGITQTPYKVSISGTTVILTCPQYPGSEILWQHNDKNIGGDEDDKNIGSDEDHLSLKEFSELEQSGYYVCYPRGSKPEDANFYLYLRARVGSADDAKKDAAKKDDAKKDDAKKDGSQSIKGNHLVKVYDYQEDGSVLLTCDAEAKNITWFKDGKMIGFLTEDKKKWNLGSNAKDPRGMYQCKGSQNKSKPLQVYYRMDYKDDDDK
- measurement protocol: Biacore SPR, vs template H183/L072
assay endpoint: fold change of affinity (fold)
Numbers only, in fold.

binder	fold change of affinity / fold
H183/L072 VH T28N (antibody, name in Kabat numbering, V domains shown) VH: QVQLVESGGGLVQPGRSLRLSCAASGFNFSNAWMHWVRQAPGKGLEWVAQIKDKGNAYAAYYAPSVKGRFTISRDDSKNSIYLQMNSLKTEDTAVYYCHYVHYASASTVLPAFGVDAWGQGTTVTVSS VL: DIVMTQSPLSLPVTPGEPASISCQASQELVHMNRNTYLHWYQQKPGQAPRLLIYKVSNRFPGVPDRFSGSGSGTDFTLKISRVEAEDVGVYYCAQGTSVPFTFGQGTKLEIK	0.8

Specify reported fold change of affinity for the binder shown: H183/L072 VH G52cE (antibody, name in Kabat numbering, V domains shown) VH: QVQLVESGGGLVQPGRSLRLSCAASGFTFSNAWMHWVRQAPGKGLEWVAQIKDKENAYAAYYAPSVKGRFTISRDDSKNSIYLQMNSLKTEDTAVYYCHYVHYASASTVLPAFGVDAWGQGTTVTVSS VL: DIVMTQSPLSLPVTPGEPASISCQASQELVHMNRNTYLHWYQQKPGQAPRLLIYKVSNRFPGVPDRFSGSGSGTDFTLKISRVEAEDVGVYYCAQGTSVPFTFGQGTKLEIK
1.2
